Hello, the source for this data is ChEMBL document CHEMBL2311431, in case you need it.

Tested on: Listeria monocytogenes
assay.explanation: Antibacterial activity against Listeria monocytogenes NCTC 7973 after 24 hr by microdilution test
Type: functional
condition: NCTC 7973, 24 h
Could you please classify the records by MIC using these ranges: low range (below 30 µM), mid range (30 µM to below 70 µM), high range (70 µM or more)

[in] # bin lookup: classify "O=C1N/C(=N\c2nccs2)S/C1=C\c1cc(Br)ccc1O" by its MIC
[out] low range

[in] Note: place this compound into its band. Item: "O=C1N/C(=N\c2nccs2)S/C1=C\c1cccc(F)c1"
[out] high range

[in] # bin label for "O=C1N/C(=N\c2nccs2)S/C1=C\c1ccc(F)cc1"
[out] high range

[in] Record "O=C1N/C(=N\c2nccs2)S/C1=C\c1ccc(Br)cc1" — which class?
[out] low range

[in] Class label required: "O=C1N/C(=N\c2nccs2)S/C1=C\c1c(Cl)cccc1Cl"
[out] mid range

[in] Band assignment needed for "O=C1N/C(=N\c2nccs2)S/C1=C\c1cccc(Br)c1" please.
[out] low range

[in] Textbook exercise: identify the category of the compound given here, "COc1ccc(OC)c(/C=C2\S/C(=N/c3nccs3)NC2=O)c1" , according to its measured value.
[out] mid range

[in] State the band of "CC1(C)S[C@@H]2[C@H](NC(=O)[C@H](N)c3ccccc3)C(=O)N2[C@H]1C(=O)O"
[out] high range

[in] For the record "O=C1N/C(=N\c2nc(-c3ccccc3)cs2)S/C1=C\c1ccc(Cl)cc1" , report the class its MIC corresponds to.
[out] mid range

[in] Which class is correct for the following compound? "O=C1N/C(=N\c2nc(-c3ccccc3)cs2)S/C1=C\c1cccc(Cl)c1"
[out] low range

[in] Pick a category. Item: "Cc1csc(/N=C2\NC(=O)/C(=C/c3ccccc3Cl)S2)n1"
[out] high range

[in] Class for "Cc1ccc(/C=C2\S/C(=N/c3nccs3)NC2=O)cc1" ?
[out] mid range

[in] Where would "O=C1N/C(=N\c2nc(-c3ccccc3)cs2)S/C1=C\c1ccccc1" land among the classes by reported MIC?
[out] low range

[in] # bin label for "CN[C@@H]1[C@H](O[C@H]2[C@H](O[C@H]3[C@H](O)[C@@H](O)[C@H](N=C(N)N)[C@@H](O)[C@@H]3N=C(N)N)O[C@@H](C)[C@]2(O)C=O)O[C@@H](CO)[C@H](O)[C@H]1O"
[out] high range

[in] Into which category would you place "COc1ccccc1/C=C1\S/C(=N/c2nccs2)NC1=O" ?
[out] mid range

[in] // return the class label for "O=C1N/C(=N\c2nc(-c3ccccc3)cs2)S/C1=C\c1ccccc1Cl"
[out] low range

[in] Which of the defined bands does the recorded MIC of "Cc1cnc(/N=C2\NC(=O)/C(=C/c3ccc([N+](=O)[O-])cc3)S2)s1" sit within?
[out] low range
